Test system: VDR homodimer (NR concentration 270 nM)
Experimental details: PBM binding z-score (relative to random genomic background probes); higher = stronger binding; sequences stand for … in GC…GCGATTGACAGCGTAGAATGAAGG
Listed here: items and their measured PBM binding z-score.
Keep the answer to the number alone.

Some entries whose results are on file:
[[record]]
sequence = "AGAATGAGCTTATTAAGATCAGGGAATTGCGGTC"
value_reported = -0.554

[[record]]
sequence = "GCTAGCAGGCCATTTGGGTAACTCAATGACGGGC"
value_reported = -0.461

[[record]]
sequence = "CGAACTAGGTCAAGGACAGTGGATCTCCGCACGC"
value_reported = 0.315

[[record]]
sequence = "GCTAGCAGGCCATTTGGGTCACTCAGTGACGGGC"
value_reported = 0.166


-- ask Item: "CAGCCTAGGTCAGTGCCAGTATAGGAGGAACGTT" Test system: VDR homodimer (NR concentration 270 nM) Read-out: PBM binding z-score Value: ?
-- reply -0.0639

-- ask One more sequence: "CAGCCTAGGTCAGGGGCAGTATAGGAGGAACGTT"
-- reply 0.103

-- ask Repeat with "CCGACTGGGGCAAAGGTTACCGTACTCAGTACGA"
-- reply -0.111

-- ask Another sequence to check: "ACTATTAGTTGAGAGGAGGGCAACCGATAGGTTG"
-- reply 0.461

-- ask Consider next the sequence "CAAACTAGGTCACCGGAAGGTCAAAGACCGCATG" in the same way.
-- reply 2.59

-- ask Queued: "TCTTGTAGATCAGCAGGTTATGAAAGCTGGCCAA"
-- reply -0.405

-- ask Note, next up: "AGAATGAGGTTATTAAGATCAGCGAATTGCGGTC"
-- reply 0.913

----------
# maps each entry to its PBM binding z-score
Tested on: PPARg:RXRa 270nM:90nM, anti-RXR (NR concentration 270 nM, RXRa partner concentration 90 nM)
Experimental details: PBM binding z-score (relative to random genomic background probes); higher = stronger binding; sequences stand for … in GC…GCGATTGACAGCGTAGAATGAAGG
Please respond with just the number, no unit label.

[[record]]
sequence = "TAGTCTAGGTCATTCAGGGGCCAGTATAGAAAGC"
value_reported = 4.38

[[record]]
sequence = "GTACCAAGGTGAATAGGTCGTTGAGGAGTAGGCG"
value_reported = 1.67

[[record]]
sequence = "TCTCTGAGGACACGAAGGTCAGAGCTTTCCAGAG"
value_reported = 2.08

[[record]]
sequence = "CCTCGGAGGACAACAGGAGGTCAGATCTGCCAGA"
value_reported = 0.241

[[record]]
sequence = "CCAGACAGGTGAGAAGATAACTCAGCCTCGATTA"
value_reported = -0.087

[[record]]
sequence = "TCTATTAGTGGAAGGGCAACCGACGAGTCCGTTT"
value_reported = 1.91

[[record]]
sequence = "CCTAGCAGGGCAGGGTCACTCAAGCATTTCGCTT"
value_reported = 2.37

[[record]]
sequence = "CTACCGAGGTGAACAAGGTCGTTGATTACTATTC"
value_reported = 1.8


-- ask Requested read-out: PBM binding z-score. Entry: "GCTCGGAGGACAAGCTCAGAGCTTTGTCCGTAGA"
-- reply -1.3

-- ask And "CCGACTGGGGCTAGGTTACCATAACGCACAGCCA" ?
-- reply 0.0405

-- ask // query: "AGCTCTAGGTAAAGATAGTTCAGTGAATGCAAAT"
-- reply 0.135
